- TARGET_DESC: MSI1 full-length (mouse, UniProt Q61474 1-362)
- Sequence (Q61474 whole entry): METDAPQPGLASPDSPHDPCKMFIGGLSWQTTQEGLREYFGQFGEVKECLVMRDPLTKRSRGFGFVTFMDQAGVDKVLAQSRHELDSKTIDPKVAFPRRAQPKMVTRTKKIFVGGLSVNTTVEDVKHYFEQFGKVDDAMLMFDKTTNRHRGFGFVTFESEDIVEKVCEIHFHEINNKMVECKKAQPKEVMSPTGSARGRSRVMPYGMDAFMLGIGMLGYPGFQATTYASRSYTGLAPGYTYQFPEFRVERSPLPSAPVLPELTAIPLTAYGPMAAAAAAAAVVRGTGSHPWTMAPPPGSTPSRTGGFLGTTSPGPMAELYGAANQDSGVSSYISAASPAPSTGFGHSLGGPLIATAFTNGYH
- PROCEDURE_TEXT: nsRBNS (natural sequence RNA bind-n-seq); RBNS binding buffer (assumed for nsRBNS): 25 mM Tris pH 7.5, 150 mM KCl, 3 mM MgCl2, 0.01% Triton X-100, 500 ug/ml BSA, 20 U/ml SUPERase-In, 4 C; UNK is unkempt and MSI1 is Musashi-1; names of the RNAs are library labels; protein concentration not given here; high values mean tight binding
The full ranking holds about 5,800 sequences; the median of “enrichment r” is about 0.54, and the highest 2% start at about 16. The sample as a whole holds a higher share of the highest values than the screen did.
Listed below: binding signal values for each entry.

BINDER	binding signal (enrichment R)
ENSG00000198589:be:win_9651|3pUTR|ENSG00000198589|bound_else_gene|NA|bound_elsewhere_windowed (ssRNA) RNA: GGGAGUUCUACAGUCCGACGAUCCUUCAAGUGGUCCCUCUUUUUUUCCUACACACUCAGCUCUUCUCUAAAAGCAAGGAUUUGGAAUGAACAAUUCAGUUUGACAGAAAAAGCUGAAUAAAAUGGCAUCUGUAAUUGAAUUGUCAACAGAGGAUUGAGCAUCA	0.318
chr9:124811826:124811928:+|3pUTR|ENSG00000185585|msi1|FALSE|unique (ssRNA) RNA: GGGAGUUCUACAGUCCGACGAUCAAGAAAUUUUCUAGCCCAACUCCCUGUUUCAUGAAAGAGAAAAGAGGCUCAGAAAAGUUUAGAGAGCAGCUCAGUGUCACACUGGGAGCUGGGCACAGCCGAUCUCCUUCCAGAAGGGUUCAACAGAGGAUUGAGCAUCA	0.831
